degraded at 5 h overview
assay: Blank reactions without phosphatase: acid-catalyzed release of L-ascorbate in pH 5.0 acetate buffer; format: physicochemical; settings: 0.05 m acetate buffer, pH 5, Table II, reaction time 5.0 h, blank without phosphatase (wheat flour), 25°, read-out: L-Ascorbate Released (%), Blank
Number only, in %; omit the unit.

Lab book: degraded at 5 h of O=C1O[C@H]([C@@H](O)CO)C(O)=C1OP(=O)(O)O [ASMP, L-Ascorbate 2-phosphate] noted as 5.8

// field: degraded at 5 h; key: O=C1O[C@H]([C@@H](O)CO)C(O)=C1OP(=O)(O)OP(=O)(O)OP(=O)(O)O [ASTP, L-ascorbate 2-triphosphate] ; value = 0

Values were extracted from patent US4647672A.
